Let's look at some molecules and their measured mortality at 100 g/ha.
- System: Myzus persicae
- measurement-description: Myzus persicae spray test
- Type: in vivo
- condition: in Brassica rapa, foliar, 120 h, read-out: activity (mortality), application rate 100 g/ha, spray, Chinese cabbage leaf disks, after 5 days
- Method: Myzus persicae—Spray Test Solvent: 78.0 parts by weight acetone • 1.5 parts by weight dimethylformamide Emulsifier: alkylarylpolyglycol ether To produce a suitable preparation of active compound, 1 part by weight of active compound is mixed with the stated amount of solvents and is diluted with water, containing an emulsifier concentration of 1000 ppm, to the desired concentration. […] After 5 days mortality in % is determined. […]
Answer in %, number only, no unit symbol.

molecule="Cc1nc([C@H](C)NC(=O)c2cncc(C(F)(F)F)c2)n(-c2ccc(C#N)cn2)n1 [II-63]" readout_number=100
molecule="C[C@H](NC(=O)c1cc(C(F)(F)F)cc(C(F)(F)F)c1)c1ncnn1-c1ccc(C(=O)N(C)CC2CC2)cn1 [II-73]" readout_number=100

// switching to the query molecule
Prompt: Quick one: mortality at 100 g/ha of Cc1nc([C@H](C)NC(=O)c2cc(Br)cc(OC(F)(F)F)c2)n(-c2ccc(C#N)cn2)n1 [II-47] ?
Completion: 100

These measurements were taken from patent US20220274947A1.
